METHOD: Controlled human inhalation exposure (4 h in exposure chamber, at rest or with moderate physical activity): toxicokinetics in blood, urine and exhaled breath
Type: in vivo
MEASUREMENT PARAMETERS: human, inhaled; urine; all exposure conditions; read-out: Half-life (converted)
QUANTITY KIND: half-life

In plain terms, CCOCC(C)O (stereo not shown) has a documented half-life of 1.3 h

----------
METHOD: Controlled human inhalation exposure (4 h in exposure chamber, at rest or with moderate physical activity): toxicokinetics in blood, urine and exhaled breath
Type: in vivo
MEASUREMENT PARAMETERS: human, inhaled; blood; physical activity; 35 ppm PGEE or 25 ppm PGPE; geometric mean ± SD; read-out: Cmax
Here the recorded Cmax is given for each entry.
Use ng/mL as the unit, but write only the number.

Per the records, this molecule ( CCCOCC(C)O (centres unmarked) ) has Cmax equal to 1230

Lab note: CCOCC(C)O (centres unmarked) gave Cmax of 2760

----------
Cmax listing for selected compounds.
METHOD: Controlled human inhalation exposure (4 h in exposure chamber, at rest or with moderate physical activity): toxicokinetics in blood, urine and exhaled breath
Type: in vivo
MEASUREMENT PARAMETERS: human, inhaled; urine; physical activity; 35 ppm PGEE or 25 ppm PGPE; geometric mean ± SD; read-out: Cmax
Description: All exposure sessions were performed under controlled conditions at the Department of Occupational and Environmental Health, Center for Primary Care and Public Health (Unisanté), University of Lausanne, in Switzerland. […] The air concentrations were below the existing OEL for PGEE, i.e., 50 ppm. […] A minimum of 48 h between two exposure sessions was determined to avoid possible cumulative exposure (Borgatta et al. [2022]). […]
I only need the number, in ng/mL, no unit after it.

COMPOUND | MEASURED NUMBER
CCOCC(C)O (centres unmarked) | 1810

Now take the following compound into account.
Query CCCOCC(C)O (centres unmarked) yields Cmax of 710

----------
METHOD: Controlled human inhalation exposure (4 h in exposure chamber, at rest or with moderate physical activity): toxicokinetics in blood, urine and exhaled breath
Format: in vivo
MEASUREMENT PARAMETERS: human, inhaled; urine; physical activity (30 min, 1.5 W/kg); 35 ppm PGEE or 25 ppm PGPE; geometric mean ± SD
QUANTITY KIND: AUC (µg·h/mL)
The reply should contain only the number, in µg·h/mL.

MOLECULE | AUC [µg·h/mL]
CCOCC(C)O (centres unmarked) | 8.82

Next, consider the following molecule.
Record CCCOCC(C)O (centres unmarked) . Reported AUC: 3.09

----------
Collected Cmax values appear next to each entry.
METHOD: Controlled human inhalation exposure (4 h in exposure chamber, at rest or with moderate physical activity): toxicokinetics in blood, urine and exhaled breath
Type: in vivo
MEASUREMENT PARAMETERS: human, inhaled or intranasal; urine; at rest; 4 h inhalation; geometric mean ± SD; read-out: Cmax
Answer with a number only, understood to be in ng/mL.

Input CCOCC(C)O (centres unmarked) [PGEE, propylene glycol ethyl ether] . Output Cmax: 1070

The measured Cmax associated with CCCOCC(C)O (centres unmarked) [PGPE, propylene glycol propyl ether] reads 450

----------
Measured Cmax, listed per entry for reference.
METHOD: Controlled human inhalation exposure (4 h in exposure chamber, at rest or with moderate physical activity): toxicokinetics in blood, urine and exhaled breath
Assay type: in vivo
MEASUREMENT PARAMETERS: human, inhaled; blood; at rest; for a same concentration of exposure (25 ppm); read-out: average Cmax in blood
Note: unit ng/mL is implicit; provide only the numeric part.

MOLECULE | MEASURED NUMBER
CCOCC(C)O (centres unmarked) [PGEE, propylene glycol ethyl ether] | 810

Attention now turns to another entry.
Measured Cmax, CCCOCC(C)O (centres unmarked) [PGPE, propylene glycol propyl ether] : 650

----------
METHOD: Controlled human inhalation exposure (4 h in exposure chamber, at rest or with moderate physical activity): toxicokinetics in blood, urine and exhaled breath
Format: in vivo
MEASUREMENT PARAMETERS: human, inhaled or intranasal; blood; at rest; 4 h inhalation (PGEE 25-35 ppm, PGPE 15-25 ppm); geometric mean ± SD
QUANTITY KIND: AUC (ng·h/mL)
Form entry: value (ng·h/mL) — number only.

COMPOUND | QUANTITY KIND | MEASURED NUMBER
CCOCC(C)O (centres unmarked) | AUC | 7320

Now for the compound whose AUC we want.
Looking up CCCOCC(C)O (centres unmarked) , I see its AUC listed as 2650
